Known PERCENTAGE OF CELL PROLIFERATION of a selection of compounds
System: HCT15 (cell lines of human colon adenocarcinoma)
Assay: Test on cell proliferation (MTT test), HCT15
Type: cell-based
Details: 10 000 nM, 72 hours
Reply with just the number (in %).

[
  {
    "compound": "CCC1(O)CC(=O)OCc2c1cc1n(c2=O)Cc2cc3cc4c(cc3nc2-1)OCCO4 (centres unmarked)",
    "unit-symbol": "%",
    "reported-result": 9.00
  },
  {
    "compound": "CCC(O)(CC(=O)O)c1cc2n(c(=O)c1CO)Cc1cc3ccccc3nc1-2 (centres unmarked)",
    "unit-symbol": "%",
    "reported-result": 20.00
  },
  {
    "compound": "CCc1c2c(nc3ccccc13)-c1cc3c(c(=O)n1C2)COC(=O)CC3(O)CC (centres unmarked)",
    "unit-symbol": "%",
    "reported-result": 8.00
  },
  {
    "compound": "CCC1(O)CC(=O)OCc2c1cc1n(c2=O)Cc2cc3ccccc3nc2-1 (centres unmarked)",
    "unit-symbol": "%",
    "reported-result": 9.00
  }
]

Reported PERCENTAGE OF CELL PROLIFERATION for CCc1c2c(nc3ccccc13)-c1cc(C(O)(CC)CC(=O)O)c(CO)c(=O)n1C2 (centres unmarked) was 17.00

###

System: L1210 (mouse lymphocytic leukemia)
Experiment: Test on cell proliferation (MTT test), L1210
Assay type: cell-based
Conditions: 0.1 nM, 48 hours
Description: a. Eight tumoral cell lines are used in this study: L1210 (mouse lymphocytic leukemia), HCT15 and LOVO (cell lines of human colon adenocarcinoma), A549 (human lung carcinoma), A172, U373 et U87 (human glioblastoma). […] Inhibition of the tumor cell line proliferation is determined using an MTT test. […] The results are expressed as percentages of the calculated proliferation by the optical density (OD) of the cells treated with a medicament divided by the OD of the control cells (cells treated with DMSO). […]
Known PERCENTAGE OF CELL PROLIFERATION of a selection of molecules
Reply with just the number (in %).

[
  {
    "molecule": "CCc1c2c(nc3ccccc13)-c1cc3c(c(=O)n1C2)COC(=O)CC3(O)CC (centres unmarked)",
    "unit-symbol": "%",
    "PERCENTAGE OF CELL PROLIFERATION": 74.04
  },
  {
    "molecule": "CCc1c2c(nc3ccccc13)-c1cc(C(O)(CC)CC(=O)O)c(CO)c(=O)n1C2 (centres unmarked)",
    "unit-symbol": "%",
    "PERCENTAGE OF CELL PROLIFERATION": 91.51
  },
  {
    "molecule": "CCC1(O)CC(=O)OCc2c1cc1n(c2=O)Cc2cc3cc4c(cc3nc2-1)OCCO4 (centres unmarked)",
    "unit-symbol": "%",
    "PERCENTAGE OF CELL PROLIFERATION": 91.99
  },
  {
    "molecule": "CCC(O)(CC(=O)O)c1cc2n(c(=O)c1CO)Cc1cc3ccccc3nc1-2 (centres unmarked)",
    "unit-symbol": "%",
    "PERCENTAGE OF CELL PROLIFERATION": 92.14
  }
]

Reported PERCENTAGE OF CELL PROLIFERATION for CCC1(O)CC(=O)OCc2c1cc1n(c2=O)Cc2cc3ccccc3nc2-1 (centres unmarked) was 87.22

###

System: L1210 (mouse lymphocytic leukemia)
Assay: Test on cell proliferation (MTT test), L1210
Type: cell-based
Details: 100 000 nM, 48 hours
Known PERCENTAGE OF CELL PROLIFERATION of a selection of compounds
Reply with just the number (in %).

[
  {
    "compound": "CCC1(O)CC(=O)OCc2c1cc1n(c2=O)Cc2cc3cc4c(cc3nc2-1)OCCO4 (centres unmarked)",
    "reported-result": 1.04
  },
  {
    "compound": "CCC(O)(CC(=O)O)c1cc2n(c(=O)c1CO)Cc1cc3ccccc3nc1-2 (centres unmarked)",
    "reported-result": 8.09
  },
  {
    "compound": "CCC1(O)CC(=O)OCc2c1cc1n(c2=O)Cc2cc3ccccc3nc2-1 (centres unmarked)",
    "reported-result": 2.20
  },
  {
    "compound": "CCc1c2c(nc3ccccc13)-c1cc3c(c(=O)n1C2)COC(=O)CC3(O)CC (centres unmarked)",
    "reported-result": 1.58
  }
]

Next, consider the following compound.
Reported PERCENTAGE OF CELL PROLIFERATION for CCc1c2c(nc3ccccc13)-c1cc(C(O)(CC)CC(=O)O)c(CO)c(=O)n1C2 (centres unmarked) was 3.65

###

System: L1210 (mouse lymphocytic leukemia)
Assay: Test on cell proliferation (MTT test), L1210
Type: cell-based
Details: 100 nM, 48 hours
Known PERCENTAGE OF CELL PROLIFERATION of a selection of compounds
Reply with just the number (in %).

Please review the entries below; each comes with its answer.
[
  {
    "compound": "CCc1c2c(nc3ccccc13)-c1cc(C(O)(CC)CC(=O)O)c(CO)c(=O)n1C2 (centres unmarked)",
    "unit-symbol": "%",
    "PERCENTAGE OF CELL PROLIFERATION": 67.32
  },
  {
    "compound": "CCC1(O)CC(=O)OCc2c1cc1n(c2=O)Cc2cc3ccccc3nc2-1 (centres unmarked)",
    "unit-symbol": "%",
    "PERCENTAGE OF CELL PROLIFERATION": 26.85
  },
  {
    "compound": "CCC(O)(CC(=O)O)c1cc2n(c(=O)c1CO)Cc1cc3ccccc3nc1-2 (centres unmarked)",
    "unit-symbol": "%",
    "PERCENTAGE OF CELL PROLIFERATION": 86.28
  },
  {
    "compound": "CCC1(O)CC(=O)OCc2c1cc1n(c2=O)Cc2cc3cc4c(cc3nc2-1)OCCO4 (centres unmarked)",
    "unit-symbol": "%",
    "PERCENTAGE OF CELL PROLIFERATION": 16.83
  }
]

Next, consider the following compound.
Reported PERCENTAGE OF CELL PROLIFERATION for CCc1c2c(nc3ccccc13)-c1cc3c(c(=O)n1C2)COC(=O)CC3(O)CC (centres unmarked) was 34.01

###

Test system: U87 (human glioblastoma)
Assay: Test on cell proliferation (MTT test), U87
Format: cell-based
Conditions: 0.1 nM, 72 hours
measured-property: PERCENTAGE OF CELL PROLIFERATION (%)
Reply with just the number (in %).

[
  {
    "molecule": "CCC(O)(CC(=O)O)c1cc2n(c(=O)c1CO)Cc1cc3ccccc3nc1-2 (centres unmarked)",
    "unit-symbol": "%",
    "PERCENTAGE OF CELL PROLIFERATION": 98.00
  },
  {
    "molecule": "CCC1(O)CC(=O)OCc2c1cc1n(c2=O)Cc2cc3cc4c(cc3nc2-1)OCCO4 (centres unmarked)",
    "unit-symbol": "%",
    "PERCENTAGE OF CELL PROLIFERATION": 40.00
  },
  {
    "molecule": "CCC1(O)CC(=O)OCc2c1cc1n(c2=O)Cc2cc3ccccc3nc2-1 (centres unmarked)",
    "unit-symbol": "%",
    "PERCENTAGE OF CELL PROLIFERATION": 108.00
  },
  {
    "molecule": "CCc1c2c(nc3ccccc13)-c1cc3c(c(=O)n1C2)COC(=O)CC3(O)CC (centres unmarked)",
    "unit-symbol": "%",
    "PERCENTAGE OF CELL PROLIFERATION": 105.00
  }
]

Next, consider the following molecule.
Reported PERCENTAGE OF CELL PROLIFERATION for CCc1c2c(nc3ccccc13)-c1cc(C(O)(CC)CC(=O)O)c(CO)c(=O)n1C2 (centres unmarked) was 96.00

###

Biological target: DNA topoisomerase 1 of purified calf thymus (Bos taurus, UniProt F1MN93)
Construct: DNA topoisomerase 1 of purified calf thymus (Gibco-BRL, Paisley, United Kingdom); purchased Gibco-BRL, Paisley, United Kingdom; host or cells: calf thymus tissue
Sequence (F1MN93 1-767): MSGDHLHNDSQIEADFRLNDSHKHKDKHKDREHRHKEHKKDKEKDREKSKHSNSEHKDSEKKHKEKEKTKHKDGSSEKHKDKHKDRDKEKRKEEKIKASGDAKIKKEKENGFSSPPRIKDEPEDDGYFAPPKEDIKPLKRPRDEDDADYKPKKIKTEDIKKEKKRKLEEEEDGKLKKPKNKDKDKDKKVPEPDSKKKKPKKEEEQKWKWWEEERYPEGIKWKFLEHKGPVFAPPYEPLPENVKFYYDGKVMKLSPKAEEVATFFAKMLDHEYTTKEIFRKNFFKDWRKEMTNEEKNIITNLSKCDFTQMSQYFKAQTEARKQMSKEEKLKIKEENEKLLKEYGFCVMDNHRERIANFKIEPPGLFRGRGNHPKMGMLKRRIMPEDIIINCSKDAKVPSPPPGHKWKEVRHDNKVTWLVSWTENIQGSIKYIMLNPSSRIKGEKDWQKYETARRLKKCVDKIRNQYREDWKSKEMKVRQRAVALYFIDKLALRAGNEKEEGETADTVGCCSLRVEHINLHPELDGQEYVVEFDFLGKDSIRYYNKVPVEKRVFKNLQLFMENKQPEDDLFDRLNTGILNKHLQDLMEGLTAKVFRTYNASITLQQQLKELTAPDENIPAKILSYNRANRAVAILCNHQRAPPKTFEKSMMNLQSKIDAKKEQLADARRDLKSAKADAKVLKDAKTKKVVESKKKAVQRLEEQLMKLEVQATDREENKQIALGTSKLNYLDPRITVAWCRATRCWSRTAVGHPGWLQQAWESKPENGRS
Assay: Relaxation activity test of DNA induced by topoisomerase 1
Type: biochemical
Conditions: 200 μM compound; supercoiled pUC19; 15 minutes at 37° C.
Known PERCENTAGE OF RELAXED DNA of a selection of compounds
Reply with just the number (in %).

[
  {
    "compound": "CCN1COc2ccc3nc4c(cc3c2C1)Cn1c-4cc2c(c1=O)COC(=O)CC2(O)CC (stereo not shown)",
    "PERCENTAGE OF RELAXED DNA (%)": 23.2
  },
  {
    "compound": "CCC1(O)CC(=O)OCc2c1cc1n(c2=O)Cc2cc3c4c(ccc3nc2-1)OCN(C)C4 (stereo not shown)",
    "PERCENTAGE OF RELAXED DNA (%)": 32.1
  },
  {
    "compound": "CCc1c2c(nc3ccccc13)-c1cc3c(c(=O)n1C2)COC(=O)CC3(O)CC (stereo not shown)",
    "PERCENTAGE OF RELAXED DNA (%)": 29.7
  },
  {
    "compound": "CCC(O)(CC(=O)O)c1cc2n(c(=O)c1CO)Cc1cc3ccccc3nc1-2 (stereo not shown)",
    "PERCENTAGE OF RELAXED DNA (%)": 67.6
  },
  {
    "compound": "CCC1(O)CC(=O)OCc2c1cc1n(c2=O)Cc2cc3c4c(ccc3nc2-1)OCN(Cc1ccccc1)C4 (stereo not shown)",
    "PERCENTAGE OF RELAXED DNA (%)": 24.2
  }
]

Reported PERCENTAGE OF RELAXED DNA for CCc1c2c(nc3ccccc13)-c1cc(C(O)(CC)CC(=O)O)c(CO)c(=O)n1C2 (stereo not shown) was 26.2

Reported PERCENTAGE OF RELAXED DNA for CCC1(O)CC(=O)OCc2c1cc1n(c2=O)Cc2cc3c4c(c(F)cc3nc2-1)OCN(Cc1ccccc1)C4 (stereo not shown) was 30.0

Reported PERCENTAGE OF RELAXED DNA for CCC1(O)CC(=O)OCc2c1cc1n(c2=O)Cc2cc3ccccc3nc2-1 (stereo not shown) was 55.0

Reported PERCENTAGE OF RELAXED DNA for CCC1(O)CC(=O)OCc2c1cc1n(c2=O)Cc2cc3cc4c(cc3nc2-1)OCCO4 (stereo not shown) was 39.8

Reported PERCENTAGE OF RELAXED DNA for CCOC(=O)CC(O)(CC)c1cc2n(c(=O)c1CO)Cc1cc3ccccc3nc1-2 (stereo not shown) was 73.2

The origin of these recorded values is patent US6815546B2.
